test system: PC-3; test: NCI tumour cell line growth inhibition, 48 h
Active and inactive are the calls of the source. Cut-off read from the data, not from the text of the source: active = GI50 up to about 1.1 µM and inactive = higher.
// GI50 lookup, one value per entry

Consider the reported GI50 for these compounds:
Compound	GI50
C[C@]12CCC(=O)[C@@H](CCC3=CC(=O)C=CC3=O)[C@@H]1CCC2=O	12.9 µM (inactive)
COc1cc(/C=C2\C(=O)N(c3ccc(NC(C)=O)cc3)C(c3ccccc3)S2(=O)=O)cc(OC)c1OC (stereo not given)	48.4 µM (inactive)
CCOP(=O)(OCC)C1CC(O)C(=O)N1 (stereo not given)	> 100 µM (inactive)

Lab book: GI50 of CC(=O)c1ccc2c(c1)CC1(C2)Cc2ccc3c(c2C1=O)CCC3 (stereo not given) noted as 21.6 µM (inactive)

Lab book: GI50 of CC(=O)OC(C)C1C2=C(C(=O)CC1(C)O)C(=O)c1c(ccc(-c3ccc4c(c3O)C(=O)C3=C(C4=O)C(C(C)OC(C)=O)C(C)(O)CC3=O)c1O)C2=O (stereo not given) noted as 3.1 µM (inactive)
